// provenance: PubChem BioAssay AID1963840

# System: 695427-040-R-J1-PDC complex spheroid viability
# Assay comment: Anticancer human tumor 695427-040-R-J1-PDC patient-derived colon adenocarcinoma cell line growth inhibition [POLQ]
# Measurement parameters: second compound 0.0316 µM; first compound 10 µM; stronger effect = lower value
Labelling: viability, T/C reported below 90% becomes true; at or above becomes false.

A selection of reference data follows.
CNCc1ccc(-c2[nH]c3cc(F)cc4c3c2CCNC4=O)cc1 + Cc1cccc(N(C)C(=O)C2C(O)CCN2c2nc(C)cc(C(F)(F)F)c2C#N)c1
false
CCc1cc2c(N3CCc4c(cc(Cn5ccnc5)cc4-c4cn(C)nc4C(F)(F)F)C3=O)ccnc2c(OC)n1 + Nc1ccc(C#CCN(C(=O)Cc2ncc(C(F)(F)F)cc2C(F)(F)F)c2ccc(F)cc2)nn1
false
CC1COCCN1c1cc(-c2ccnn2C)c2ccnc(-c3ccn[nH]3)c2n1 (stereo unspecified) + Cc1cccc(N(C)C(=O)C2C(O)CCN2c2nc(C)cc(C(F)(F)F)c2C#N)c1
true

Task: Is the reported viability, T/C for O=C(Nc1ccc(O)c(NS(=O)(=O)c2ccc(F)cc2)c1)c1ccc(-c2ccccc2)cc1 + Cc1cccc(N(C)C(=O)C2C(O)CCN2c2nc(C)cc(C(F)(F)F)c2C#N)c1 strictly below 90%?
Result: false

Task: Is the reported viability, T/C for COc1cc(C2c3cc4c(cc3C(OC3OC5COC(C)OC5C(O)C3O)C3COC(=O)C23)OCO4)cc(OC)c1O (stereo unspecified) + COC1C(OC(N)=O)C(O)C(Oc2ccc3c(O)c(NC(=O)c4ccc(O)c(CC=C(C)C)c4)c(=O)oc3c2C)OC1(C)C strictly below 90%?
Result: true

* * *

# Tested on: 695427-040-R-J1-PDC complex spheroid viability
# Assay comment: Anticancer human tumor 695427-040-R-J1-PDC cell line growth inhibition [POLQ];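 further: spheroids exposed to compounds for seven days; 100% = DMSO vehicle control viability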
# Measurement parameters: second compound 0.316 µM; first compound 0.0316 µM; stronger effect = lower value
Value kind: viability, T/C

O=C(Nc1ccc(O)c(NS(=O)(=O)c2ccc(F)cc2)c1)c1ccc(-c2ccccc2)cc1 + Cc1cccc(N(C)C(=O)C2C(O)CCN2c2nc(C)cc(C(F)(F)F)c2C#N)c1
104%
O=C(c1cc(Cc2n[nH]c(=O)c3ccccc23)ccc1F)N1CCN(C(=O)C2CC2)CC1 + Cc1cccc(N(C)C(=O)C2C(O)CCN2c2nc(C)cc(C(F)(F)F)c2C#N)c1
109%
COc1cc(C2c3cc4c(cc3C(OC3OC5COC(C)OC5C(O)C3O)C3COC(=O)C23)OCO4)cc(OC)c1O (configuration not stated) + Cc1cccc(N(C)C(=O)C2C(O)CCN2c2nc(C)cc(C(F)(F)F)c2C#N)c1
95.7%
CC1COCCN1c1cc(C2(O)CC3CCC(C2)O3)c2cnn(-c3ccn[nH]3)c2n1 (configuration not stated) + COC1C(OC(N)=O)C(O)C(Oc2ccc3c(O)c(NC(=O)c4ccc(O)c(CC=C(C)C)c4)c(=O)oc3c2C)OC1(C)C
99.9%
Cn1ncnc1[C@H]1c2n[nH]c(=O)c3cc(F)cc(c23)N[C@@H]1c1ccc(F)cc1 + Cc1cccc(N(C)C(=O)C2C(O)CCN2c2nc(C)cc(C(F)(F)F)c2C#N)c1
107%

Task: Data request, read-out viability, T/C, for CC1COCCN1c1cc(-c2ccnn2C)c2ccnc(-c3ccn[nH]3)c2n1 (configuration not stated) + Cc1cccc(N(C)C(=O)C2C(O)CCN2c2nc(C)cc(C(F)(F)F)c2C#N)c1
Result: 104%

Task: Data request, read-out viability, T/C, for CC[C@@]1(O)C(=O)OCc2c1cc1n(c2=O)Cc2cc3c(CN(C)C)c(O)ccc3nc2-1 + Nc1ccc(C#CCN(C(=O)Cc2ncc(C(F)(F)F)cc2C(F)(F)F)c2ccc(F)cc2)nn1
Result: 108%

Task: Data request, read-out viability, T/C, for CC1COCCN1c1cc(C2(O)CC3CCC(C2)O3)c2cnn(-c3ccn[nH]3)c2n1 (configuration not stated) + Cc1cccc(N(C)C(=O)C2C(O)CCN2c2nc(C)cc(C(F)(F)F)c2C#N)c1
Result: 109%

Task: Data request, read-out viability, T/C, for C=CC(=O)N1CCN(c2nc(=O)n(-c3c(C)ccnc3C(C)C)c3nc(-c4c(O)cccc4F)c(F)cc23)C(C)C1 (configuration not stated) + COC1C(OC(N)=O)C(O)C(Oc2ccc3c(O)c(NC(=O)c4ccc(O)c(CC=C(C)C)c4)c(=O)oc3c2C)OC1(C)C
Result: 106%

Task: Data request, read-out viability, T/C, for COc1cccc2c1C(=O)c1c(O)c3c(c(O)c1C2=O)CC(O)(C(=O)CO)CC3OC1CC(N)C(O)C(C)O1 (configuration not stated) + COC1C(OC(N)=O)C(O)C(Oc2ccc3c(O)c(NC(=O)c4ccc(O)c(CC=C(C)C)c4)c(=O)oc3c2C)OC1(C)C
Result: 102%

Task: Data request, read-out viability, T/C, for COc1ccc([C@@H](O)c2cc(-c3ncnc4cc(N5CCOCC5)ccc34)c(F)cc2Cl)nn1 + COC1C(OC(N)=O)C(O)C(Oc2ccc3c(O)c(NC(=O)c4ccc(O)c(CC=C(C)C)c4)c(=O)oc3c2C)OC1(C)C
Result: 127%

Task: Data request, read-out viability, T/C, for CCCS(=O)(=O)Nc1ccc(F)c(C(=O)c2c[nH]c3ncc(-c4ccc(Cl)cc4)cc23)c1F + Nc1ccc(C#CCN(C(=O)Cc2ncc(C(F)(F)F)cc2C(F)(F)F)c2ccc(F)cc2)nn1
Result: 100%

* * *

# System: 695427-040-R-J1-PDC complex spheroid viability
# Assay comment: Anticancer human tumor 695427-040-R-J1-PDC cell line growth inhibition [POLQ];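 further: spheroids exposed to compounds for seven days; 100% = DMSO vehicle control viability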
# Measurement parameters: second compound 3.16 µM; first compound 0.0316 µM; stronger effect = lower value
Catalogue of viability, T/C values
Write it as a number; the unit % goes unstated.

COc1cccc2c1C(=O)c1c(O)c3c(c(O)c1C2=O)CC(O)(C(=O)CO)CC3OC1CC(N)C(O)C(C)O1 (stereo unspecified) + Nc1ccc(C#CCN(C(=O)Cc2ncc(C(F)(F)F)cc2C(F)(F)F)c2ccc(F)cc2)nn1
96.2
O=C(c1cc(Cc2n[nH]c(=O)c3ccccc23)ccc1F)N1CCN(C(=O)C2CC2)CC1 + Nc1ccc(C#CCN(C(=O)Cc2ncc(C(F)(F)F)cc2C(F)(F)F)c2ccc(F)cc2)nn1
103
Nc1ccn(C2OC(CO)C(O)C2(F)F)c(=O)n1 (stereo unspecified) + Nc1ccc(C#CCN(C(=O)Cc2ncc(C(F)(F)F)cc2C(F)(F)F)c2ccc(F)cc2)nn1
102
COc1cccc2c1C(=O)c1c(O)c3c(c(O)c1C2=O)CC(O)(C(=O)CO)CC3OC1CC(N)C(O)C(C)O1 (stereo unspecified) + Cc1cccc(N(C)C(=O)C2C(O)CCN2c2nc(C)cc(C(F)(F)F)c2C#N)c1
96.6
Cn1ncnc1[C@H]1c2n[nH]c(=O)c3cc(F)cc(c23)N[C@@H]1c1ccc(F)cc1 + Cc1cccc(N(C)C(=O)C2C(O)CCN2c2nc(C)cc(C(F)(F)F)c2C#N)c1
102
CCc1cc2c(N3CCc4c(cc(Cn5ccnc5)cc4-c4cn(C)nc4C(F)(F)F)C3=O)cc(C)nc2c(OC)n1 + COC1C(OC(N)=O)C(O)C(Oc2ccc3c(O)c(NC(=O)c4ccc(O)c(CC=C(C)C)c4)c(=O)oc3c2C)OC1(C)C
117
COc1cccc2c1C(=O)c1c(O)c3c(c(O)c1C2=O)CC(O)(C(=O)CO)CC3OC1CC(N)C(O)C(C)O1 (stereo unspecified) + COC1C(OC(N)=O)C(O)C(Oc2ccc3c(O)c(NC(=O)c4ccc(O)c(CC=C(C)C)c4)c(=O)oc3c2C)OC1(C)C
99.4
O=c1[nH]cc(F)c(=O)[nH]1 + COC1C(OC(N)=O)C(O)C(Oc2ccc3c(O)c(NC(=O)c4ccc(O)c(CC=C(C)C)c4)c(=O)oc3c2C)OC1(C)C
109
Cn1ncnc1[C@H]1c2n[nH]c(=O)c3cc(F)cc(c23)N[C@@H]1c1ccc(F)cc1 + Nc1ccc(C#CCN(C(=O)Cc2ncc(C(F)(F)F)cc2C(F)(F)F)c2ccc(F)cc2)nn1
108
O=C(Nc1ccc(O)c(NS(=O)(=O)c2ccc(F)cc2)c1)c1ccc(-c2ccccc2)cc1 + Cc1cccc(N(C)C(=O)C2C(O)CCN2c2nc(C)cc(C(F)(F)F)c2C#N)c1
97.6

Task: Data request, read-out viability, T/C, for CC1COCCN1c1cc(-c2ccnn2C)c2ccnc(-c3ccn[nH]3)c2n1 (stereo unspecified) + Cc1cccc(N(C)C(=O)C2C(O)CCN2c2nc(C)cc(C(F)(F)F)c2C#N)c1
Result: 97.9

* * *

# Test system: 695427-040-R-J1-PDC complex spheroid viability
# Assay comment: Anticancer human tumor 695427-040-R-J1-PDC cell line growth inhibition [POLQ];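 further: spheroids exposed to compounds for seven days; 100% = DMSO vehicle control viability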
# Measurement parameters: second compound 1 µM; first compound 3.16 µM; stronger effect = lower value
Value kind: viability, T/C (%)
Write it as a number; the unit % goes unstated.

CC(C)n1c(=O)n(C)c2cnc3cc(F)c(-c4ccc(OCCCN5CCCCC5)nc4)cc3c21 + Nc1ccc(C#CCN(C(=O)Cc2ncc(C(F)(F)F)cc2C(F)(F)F)c2ccc(F)cc2)nn1
115
O=C(c1cc(Cc2n[nH]c(=O)c3ccccc23)ccc1F)N1CCN(C(=O)C2CC2)CC1 + Cc1cccc(N(C)C(=O)C2C(O)CCN2c2nc(C)cc(C(F)(F)F)c2C#N)c1
101
O=C(c1cc(Cc2n[nH]c(=O)c3ccccc23)ccc1F)N1CCN(C(=O)C2CC2)CC1 + Nc1ccc(C#CCN(C(=O)Cc2ncc(C(F)(F)F)cc2C(F)(F)F)c2ccc(F)cc2)nn1
113
CC1COCCN1c1cc(C2(S(C)(=N)=O)CC2)nc(-c2ccnc3[nH]ccc23)n1 (configuration not stated) + Nc1ccc(C#CCN(C(=O)Cc2ncc(C(F)(F)F)cc2C(F)(F)F)c2ccc(F)cc2)nn1
102
CNCc1ccc(-c2[nH]c3cc(F)cc4c3c2CCNC4=O)cc1 + Nc1ccc(C#CCN(C(=O)Cc2ncc(C(F)(F)F)cc2C(F)(F)F)c2ccc(F)cc2)nn1
112
CCc1cc2c(N3CCc4c(cc(Cn5ccnc5)cc4-c4cn(C)nc4C(F)(F)F)C3=O)ccnc2c(OC)n1 + Nc1ccc(C#CCN(C(=O)Cc2ncc(C(F)(F)F)cc2C(F)(F)F)c2ccc(F)cc2)nn1
114

Proceeding to the next compound to report its viability, T/C.
Task: Data request, read-out viability, T/C, for COc1cc2cc(C(=O)CCC(=O)O)sc2cc1OC + COC1C(OC(N)=O)C(O)C(Oc2ccc3c(O)c(NC(=O)c4ccc(O)c(CC=C(C)C)c4)c(=O)oc3c2C)OC1(C)C
Result: 101
